Reported IC50 values for the following compounds.
# System: MZ7-mel;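 also: growth inhibition of human MZ7-mel cells, measured by a cell viability assay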
# Method Notes: cells
# Type: functional, cell-based
# Conditions Used: Homo sapiens
# Description: SANGER: Inhibition of human MZ7-mel cell growth in a cell viability assay.
Property Label: IC50 (nM)

compound=C/C=C(/C)C(=O)O[C@H]1C(C)=C2[C@H]([C@@H]1OC(=O)CCCCCCC)[C@@](C)(OC(C)=O)C[C@H](OC(=O)CCC)[C@@]1(O)[C@H]2OC(=O)[C@@]1(C)O property_label=IC50 value_units=nM value_comparator== val=107
compound=Cc1ccc(NC(=O)c2cccc(C(C)(C)C#N)c2)cc1Nc1ccc2ncn(C)c(=O)c2c1 property_label=IC50 value_units=nM value_comparator== val=117
compound=CCNc1cc(N[C@H]2CC[C@@H](O)CC2)nc(Nc2ccc3c(ccn3Cc3ccccc3)c2)n1 property_label=IC50 value_units=nM value_comparator=> val=5120
compound=Cn1c(=O)n(-c2ccc(C(C)(C)C#N)cc2)c2c3cc(-c4cnc5ccccc5c4)ccc3ncc21 property_label=IC50 value_units=nM value_comparator== val=324
compound=COc1cc(Nc2c(C#N)cnc3cc(OCCCN4CCN(C)CC4)c(OC)cc23)c(Cl)cc1Cl property_label=IC50 value_units=nM value_comparator=> val=2000
compound="CCn1c(-c2nonc2N)nc2cnc(Oc3cccc(NC(=O)c4ccc(OCCN5CCOCC5)cc4)c3)cc21 [GSK-269962A]" property_label=IC50 value_units=nM value_comparator=> val=2500
compound=CC[C@]1(O)C[C@@H]2CN(CCc3c([nH]c4ccccc34)[C@@](C(=O)OC)(c3cc4c(cc3OC)N(C)[C@H]3[C@@](O)(C(=O)OC)[C@H](OC(C)=O)[C@]5(CC)C=CCN6CC[C@]43[C@@H]65)C2)C1 property_label=IC50 value_units=nM value_comparator== val=11.1
compound=CC(C)=CC[C@@H](O)C1=CC(=O)c2c(O)ccc(O)c2C1=O property_label=IC50 value_units=nM value_comparator== val=114

----------
# Tested on: LS-513
# Method Notes: cells
# Assay type: functional, cell-based
# Conditions Used: Homo sapiens
# Description: SANGER: Inhibition of human LS-513 cell growth in a cell viability assay.
pIC50: −log10 of the molar value.
Property Label: pIC50

chemical_smiles=CC[C@]1(O)C[C@@H]2CN(CCc3c([nH]c4ccccc34)[C@@](C(=O)OC)(c3cc4c(cc3OC)N(C)[C@H]3[C@@](O)(C(=O)OC)[C@H](OC(C)=O)[C@]5(CC)C=CCN6CC[C@]43[C@@H]65)C2)C1 system_tested=LS-513 property_label=pIC50 val=7.25
chemical_smiles=O=c1[nH]c2ccccc2n1C1CCN(Cc2ccc(-c3nc4cc5[nH]cnc5cc4nc3-c3ccccc3)cc2)CC1 system_tested=LS-513 property_label=pIC50 val="< 5.59"
chemical_smiles=C/C(O)=C(\C#N)C(=O)Nc1cc(Br)ccc1Br system_tested=LS-513 property_label=pIC50 val="< 4.80"
chemical_smiles=CCCS(=O)(=O)Nc1ccc(F)c(C(=O)c2c[nH]c3ncc(Cl)cc23)c1F system_tested=LS-513 property_label=pIC50 val="< 5.00"

----------
Reported IC50 values for the following compounds.
# Test system: A-427;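 also: growth inhibition of human A-427 cells, read out by a cell viability assay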
# Method Notes: cells
# Assay type: functional, cell-based
# Conditions Used: Homo sapiens
# Description: SANGER: Inhibition of human A427 cell growth in a cell viability assay.
Property Label: IC50

compound=NC(=O)c1ncn([C@@H]2O[C@H](COP(=O)(O)O)[C@@H](O)[C@H]2O)c1N system_tested=A-427 val="> 2000 µM"
compound=O=c1[nH]c2ccccc2n1C1CCN(Cc2ccc(-c3nc4cc5[nH]cnc5cc4nc3-c3ccccc3)cc2)CC1 system_tested=A-427 val="> 2.56 µM"
compound="C[C@]1(c2nc3c(C(N)=O)cccc3[nH]2)CCCN1 [VELIPARIB]" system_tested=A-427 val="> 5 µM"
compound="CC(O)(CS(=O)(=O)c1ccc(F)cc1)C(=O)Nc1ccc(C#N)c(C(F)(F)F)c1 (stereo not drawn) [BICALUTAMIDE]" system_tested=A-427 val="> 1.02 µM"
compound="CO[C@@]12[C@H](COC(N)=O)C3=C(C(=O)C(C)=C(N)C3=O)N1C[C@@H]1N[C@@H]12 [MITOMYCIN]" system_tested=A-427 val="0.301 µM"
compound=N#C/C(=C1/Nc2ccccc2S1)c1ccnc(NCCc2cccnc2)n1 system_tested=A-427 val="> 8 µM"
compound="CCCS(=O)(=O)Nc1ccc(F)c(C(=O)c2c[nH]c3ncc(Cl)cc23)c1F [PLX-4720]" system_tested=A-427 val="> 10 µM"
compound="COc1cc(Nc2c(C#N)cnc3cc(OCCCN4CCN(C)CC4)c(OC)cc23)c(Cl)cc1Cl [BOSUTINIB]" system_tested=A-427 val="> 2 µM"

----------
# System: KYSE-450;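 also: cell growth inhibition measured by a viability assay in human KYSE-450 cells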
# Method Notes: cells
# Format: functional, cell-based
# Conditions Used: Homo sapiens
# Description: SANGER: Inhibition of human KYSE-450 cell growth in a cell viability assay.
Reported IC50 values for the following molecules.
Property Label: IC50 (nM)

molecule="CC(O)(CS(=O)(=O)c1ccc(F)cc1)C(=O)Nc1ccc(C#N)c(C(F)(F)F)c1 (stereo not given) [BICALUTAMIDE]" property_label=IC50 value_comparator=> val=1020
molecule=Cn1c(=O)n(-c2ccc(C(C)(C)C#N)cc2)c2c3cc(-c4cnc5ccccc5c4)ccc3ncc21 property_label=IC50 value_comparator== val=55.2
molecule=CC[C@]1(O)C[C@@H]2CN(CCc3c([nH]c4ccccc34)[C@@](C(=O)OC)(c3cc4c(cc3OC)N(C)[C@H]3[C@@](O)(C(=O)OC)[C@H](OC(C)=O)[C@]5(CC)C=CCN6CC[C@]43[C@@H]65)C2)C1 property_label=IC50 value_comparator== val=9.65
molecule=Cn1cc(/C=C2\C(=O)Nc3cccnc32)c2ccccc21 property_label=IC50 value_comparator=> val=2000
molecule=CCNC(=O)c1noc(-c2cc(C(C)C)c(O)cc2O)c1-c1ccc(CN2CCOCC2)cc1 property_label=IC50 value_comparator== val=13.5

----------
# Tested on: OAW-28;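 also: growth inhibition of OAW-28 cells, read out with a cell viability assay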
# Method Notes: cells
# Format: functional, cell-based
# Conditions Used: Homo sapiens
# Description: SANGER: Inhibition of human OAW-28 cell growth in a cell viability assay.
Property Label: IC50 (nM)

compound=N#C/C(=C1/Nc2ccccc2S1)c1ccnc(NCCc2cccnc2)n1 system_tested=OAW-28 value_comparator=> val=8000
compound="CC[C@]1(O)C[C@@H]2CN(CCc3c([nH]c4ccccc34)[C@@](C(=O)OC)(c3cc4c(cc3OC)N(C)[C@H]3[C@@](O)(C(=O)OC)[C@H](OC(C)=O)[C@]5(CC)C=CCN6CC[C@]43[C@@H]65)C2)C1 [VINBLASTINE]" system_tested=OAW-28 value_comparator== val=40.7
compound="Cn1c(=O)n(-c2ccc(C(C)(C)C#N)cc2)c2c3cc(-c4cnc5ccccc5c4)ccc3ncc21 [DACTOLISIB]" system_tested=OAW-28 value_comparator=> val=2000
compound=Fc1cc(-c2cc[nH]/c(=N/c3ccc(-n4cnc(N5CCOCC5)n4)cc3)n2)cc(N2CCOCC2)c1 system_tested=OAW-28 value_comparator== val=1450
compound="C[C@]1(c2nc3c(C(N)=O)cccc3[nH]2)CCCN1 [VELIPARIB]" system_tested=OAW-28 value_comparator=> val=5000

----------
# Tested on: 769-P
# Method Notes: cells
# Assay type: functional, cell-based
# Conditions Used: Homo sapiens
# Description: SANGER: Inhibition of human 769-P cell growth in a cell viability assay.
Reported IC50 values for the following compounds.
Property Label: IC50 (µM)

chemical_smiles=CC[C@]1(O)C[C@@H]2CN(CCc3c([nH]c4ccccc34)[C@@](C(=O)OC)(c3cc4c(cc3OC)N(C)[C@H]3[C@@](O)(C(=O)OC)[C@H](OC(C)=O)[C@]5(CC)C=CCN6CC[C@]43[C@@H]65)C2)C1 system_tested=769-P property_label=IC50 value_comparator== val=0.0256
chemical_smiles=NC(=O)c1ncn([C@@H]2O[C@H](COP(=O)(O)O)[C@@H](O)[C@H]2O)c1N system_tested=769-P property_label=IC50 value_comparator=> val=2000
chemical_smiles=C/C(O)=C(\C#N)C(=O)Nc1cc(Br)ccc1Br system_tested=769-P property_label=IC50 value_comparator=> val=16
chemical_smiles=Fc1cc(-c2cc[nH]/c(=N/c3ccc(-n4cnc(N5CCOCC5)n4)cc3)n2)cc(N2CCOCC2)c1 system_tested=769-P property_label=IC50 value_comparator== val=0.535
chemical_smiles=CC(C)=CC[C@@H](O)C1=CC(=O)c2c(O)ccc(O)c2C1=O system_tested=769-P property_label=IC50 value_comparator== val=0.689
chemical_smiles=C[C@]1(c2nc3c(C(N)=O)cccc3[nH]2)CCCN1 system_tested=769-P property_label=IC50 value_comparator=> val=5
chemical_smiles=CC(=O)c1c(C)c2cnc(Nc3ccc(N4CCNCC4)cn3)nc2n(C2CCCC2)c1=O system_tested=769-P property_label=IC50 value_comparator=> val=4

----------
# Tested on: SK-CO-1;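 also: growth inhibition of SK-CO-1 cells, determined by a viability readout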
# Method Notes: cells
# Type: functional, cell-based
# Conditions Used: Homo sapiens
# Description: SANGER: Inhibition of human SK-CO-1 cell growth in a cell viability assay.
pIC50: −log10 of the molar value.
Property Label: pIC50

compound="CC(C)=CC[C@@H](O)C1=CC(=O)c2c(O)ccc(O)c2C1=O [SHIKONIN]" val=5.69
compound=N#C/C(=C1/Nc2ccccc2S1)c1ccnc(NCCc2cccnc2)n1 val="< 5.10"
compound=O=c1[nH]c2ccccc2n1C1CCN(Cc2ccc(-c3nc4cc5[nH]cnc5cc4nc3-c3ccccc3)cc2)CC1 val="< 5.59"
compound="CC(O)(CS(=O)(=O)c1ccc(F)cc1)C(=O)Nc1ccc(C#N)c(C(F)(F)F)c1 (centres undefined) [BICALUTAMIDE]" val="< 5.99"
